Source listed as ChEMBL document CHEMBL1154198.

Quick list: log10 of EC50 per entry.
- Test system: Plasmodium falciparum
- assayProcedure: ST_JUDE: Plasmodium falciparum K1 EC50 (uM) as measured by SYBR green dye
- Assay type: functional, organism-based
Would you kindly interpret these values as log10 of EC50 expressed in µM?

CCOc1cc(CN(C)Cc2nnc(SCc3ccccc3C)n2CC2CCCO2)ccc1OC (stereo not drawn) ... 0.38
Cc1c2[nH]c3ccccc3c2c2c([n+]1C)CC(C)(C)CC2 ... 0.15

query: Identify the measured log10 of EC50 of `O=C(c1ccccc1)N1CCN(c2ccccc2NC(=O)C(Cl)(Cl)Cl)CC1` for Plasmodium falciparum.
result: -0.06

query: What about this molecule? CCc1ccccc1NC(=O)C1c2ccccc2C(=O)N(C2CCCC2)C1c1cccs1 (stereo not drawn)
result: 0.53

query: `COc1cccc(Nc2nc(N3CCN(CCO)CC3)nc3c2cnn3-c2ccccc2)c1` ?
result: 0.67

query: Field entry: COc1ccc(OC)c(NC(=O)C2c3ccccc3C(=O)N(C)C2c2cccs2)c1 (stereo not drawn)
result: 0.63

query: Try this molecule next: O=C1CC(O)(C(F)(F)C(F)(F)F)Oc2ccccc21 (stereo not drawn)
result: 0.39

query: Now consider `O=C(O)c1cccc(NC2=C(N3CCCCC3)C(=O)c3ccccc3C2=O)c1` .
result: 0.68

query: Could you do the same for `O=C1/C(=C/c2ccc(F)cc2)Oc2c1ccc(O)c2CN1CCCCC1` , please?
result: -0.33

query: Would you mind doing `CCCOc1ccc(CSC2=NCCN2)cc1[N+](=O)[O-]` as well?
result: 0.84

query: And then `O=C(C1CCCCC1)N(Cc1cccnc1)c1nc2c(Cl)cccc2s1` , what is it?
result: 0.37

query: Same for `COc1ccc(-c2onc(C(F)(F)F)c2Oc2cnn(-c3ccccc3)c2)c(O)c1`
result: 0.21

query: What do you have for `Cc1n(C)c2ccccc2[n+]1CC(=O)c1ccc([N+](=O)[O-])cc1` ?
result: 0.32

query: Okay, and Cc1ccc2c(c1)c1c(n2CC(O)Cn2cnc(-c3ccccc3)c2-c2ccccc2)CCCC1 (stereo not drawn) ?
result: 0.03

query: CC(C)C(=O)NC(c1ccc(Cl)cc1Cl)c1ccc2cccnc2c1O (stereo not drawn) ?
result: 0.66

###

- Test system: Plasmodium falciparum
- assayProcedure: ST_JUDE: Plasmodium falciparum 3D7 EC50 (uM) as measured by SYBR green dye
- Assay type: functional, organism-based
Attribute: pEC50
On this scale, pEC50 is minus log10 of a concentration expressed in M (mol/L).

CCO/C(O)=C1\C(C)=NC2=C(C(=O)CC(c3ccc(OC)c(OC)c3)C2)C1c1cccc(Cl)c1 (stereo not given) ... 6.15
Oc1c(C(Nc2ccccn2)c2cccc(Oc3ccccc3)c2)ccc2cccnc12 (stereo not given) ... 5.53

query: Need pEC50 of `CCOc1ccc(-c2nonc2NC(=O)c2ccccc2Cl)cc1OCC` , thanks.
result: 6.31

query: Another compound to check: `COc1ccc(NC2=C/C(=N/S(=O)(=O)c3ccc(C(C)C)cc3)c3ccccc3C2=O)cc1`
result: 6.30

query: Thanks! And `CCN1CCN(c2cc(C)c3cc(NC(=S)NCc4cc(OC)ccc4OC)ccc3n2)CC1` ?
result: 5.51

###

- Test system: Plasmodium falciparum
- assayProcedure: ST_JUDE: Plasmodium falciparum 3D7 EC50 (uM) as measured by SYBR green dye
- Type: functional, organism-based
measureName: pEC50
Please report pEC50 as the negative decimal logarithm of the molar concentration, giving only the number.

Cc1ccc(Nc2cc(C)nc(Nc3ccc(NS(=O)(=O)c4cccc(F)c4)cc3)n2)cc1 ... 5.91
Cc1ccc2ccc(C(Nc3ccccn3)c3cccc(Cl)c3)c(O)c2n1 (stereo unspecified) ... 5.38
N=C(N/N=C\c1ccc(F)cc1)N/N=C\c1ccc(F)cc1 ... 6.12
COc1ccc2c(c1)N(C)/C(=C/c1cccc[n+]1C)S2 ... 6.73

query: Data request, read-out pEC50, for `Cc1c(C=O)c2ccccc2n1CC(=O)Nc1ccc(Br)c(Cl)c1`
result: 6.15

query: Now try `CC[n+]1ccccc1/C=C1\Sc2ccc(C)cc2N1C` .
result: 6.24

query: Same read-out for `Cc1n(C)c2ccccc2[n+]1CC(=O)c1ccc([N+](=O)[O-])cc1` ?
result: 5.79
